experiment: Short-term stability in spiked pooled human plasma (bench-top, 4 °C, 56 °C); details: validation standard LLOV
Hi! Just check whether Short-time stability (1h, 56°C) Accuracy [%] is below 60%. Below gives Criterion met, equal or above gives Criterion not met.

Solved entries (count: 6):
# Compound, Assigned label
rows = [
    ("C[C@H]1Oc2cc(cnc2N)-c2c(nn(C)c2C#N)CN(C)C(=O)c2ccc(F)cc21 [Lorlatinib]", "Criterion met"),
    ("CS(=O)(=O)c1ccc(C(=O)Nc2ccc(Cl)c(-c3ccccn3)c2)c(Cl)c1 [Vismodegib]", "Criterion met"),
    ("O=c1[nH]c(=O)n([C@H]2C[C@H](O)[C@@H](CO)O2)cc1C(F)(F)F [Trifluridine]", "Criterion met"),
    ("Cc1cc(Nc2ncc(Cl)c(Nc3ccccc3S(=O)(=O)C(C)C)n2)c(OC(C)C)cc1C1CCNCC1 [Ceritinib]", "Criterion met"),
    ("CNC(=O)c1ccccc1Sc1ccc2c(/C=C/c3ccccn3)n[nH]c2c1 [Axitinib]", "Criterion not met"),
    ("Cn1cnc2c(F)c(Nc3ccc(Br)cc3F)c(C(=O)NOCCO)cc21 [Binimetinib]", "Criterion not met"),
]

Continue with the next compound.
Regarding O=C(Nc1cnn2ccc(N3CCC[C@@H]3c3cc(F)ccc3F)nc12)N1CC[C@H](O)C1 [Larotrectinib] , kindly confirm whether its Short-time stability (1h, 56°C) Accuracy [%] is beneath 60%. Criterion met

----------
assay: Short-term stability in spiked pooled human plasma (bench-top, 4 °C, 56 °C); conditions: validation standard MOV
Is Short-time stability (24h, RT, without daylight) Accuracy [%] at least 90%? Then Yes. If not, No.

# Compound, Assigned label
data = [
    ("O=C(c1ccc(F)c(F)c1Nc1ccc(I)cc1F)N1CC(O)([C@@H]2CCCCN2)C1", "Yes"),
]

Continue with the next compound.
Determine whether this compound has Short-time stability (24h, RT, without daylight) Accuracy [%] no lower than 90%: "C[C@]12CC[C@H](O)CC1=CC[C@@H]1[C@@H]2CC[C@]2(C)C(c3cccnc3)=CC[C@@H]12" Yes

----------
Some molecules, each annotated with its measured Long-term stability, 1 month, -80°C Accuracy [%].
experiment: Long-term stability in spiked pooled human plasma; conditions: validation standard 2xLLOV
Give the value, in units of %, as a plain number.

# Molecule, Unit string, Value reported
rows = [
    ("CN(C)C(=O)c1cc2cnc(Nc3ccc(N4CCNCC4)cn3)nc2n1C1CCCC1", "%", 98.5),
    ("COc1cc2nccc(Oc3ccc(NC(=O)NC4CC4)c(Cl)c3)c2cc1C(N)=O", "%", 94.9),
    ("Cc1ccc(C(=O)Nc2ccc(CN3CCN(C)CC3)c(C(F)(F)F)c2)cc1C#Cc1cnc2cccnn12", "%", 94.7),
    ("CS(=O)(=O)c1ccc(C(=O)Nc2ccc(Cl)c(-c3ccccn3)c2)c(Cl)c1", "%", 99.5),
    ("CNC(=O)c1cc(Oc2ccc(NC(=O)Nc3ccc(Cl)c(C(F)(F)F)c3)c(F)c2)ccn1", "%", 104.0),
]

Record request: Long-term stability, 1 month, -80°C Accuracy [%] value, item "COc1cc2nccc(Oc3ccc(NC(=O)Nc4cc(C)on4)c(Cl)c3)c2cc1OC" 95.7

Please answer likewise for "CNCc1ccc(-c2[nH]c3cc(F)cc4c3c2CCNC4=O)cc1" 89.7

Please answer likewise for "O=C(Nc1cnn2ccc(N3CCC[C@@H]3c3cc(F)ccc3F)nc12)N1CC[C@H](O)C1" 92.9

Please answer likewise for CNC(=O)c1ccc(N2C(=S)N(c3cnc(C#N)c(C(F)(F)F)c3)C(=O)C23CCC3)cc1F [Apalutamide] 93.2

Please answer likewise for Nc1cccc2c1C(=O)N(C1CCC(=O)NC1=O)C2=O (centres unmarked) [Pomalidomide] 90.2

From: paper PMC8699473
